These data points were gathered from patent US20240391950A1.

Below: a set of entries, each annotated with reported pKd.
- assaySystem: human IgG1 (human)
- measurementDescription: SPR, BIAcore T200, IgG immobilised on CM5 chip, peptide as analyte
Positions of bridges follow the written chain, without caps; N, C: chain ends. No end group written: not given here.
The meaning of pKd here: minus log10 of the concentration in molar units.

Below, 4 binders whose answers are already recorded.
[
  {
    "binder": "GSGGSGPDCAYHRGELVWCTFH (the thiol groups of the two Cys residues crosslinked with 1,3-dichloroacetone in place of the disulfide bond) [1,3-dichloroacetone-crosslinked cyclic peptide of IgG-BP-LongGS]",
    "numericResult": 5.31
  },
  {
    "binder": "GSGGSGPDCAYHRGELVWCTFH (the thiol groups of the two Cys residues crosslinked with 2,2-dichloroacetophenone in place of the disulfide bond; Fmoc removed) [2,2-dichloroacetophenone-crosslinked cyclic peptide of IgG-BP-LongGS]",
    "numericResult": 8.19
  },
  {
    "binder": "GSGGSGPDCAYHRGELVWCTFH (the thiol groups of the two Cys residues crosslinked with 1,1-dichloropinacolin in place of the disulfide bond; Fmoc removed) [1,1-dichloropinacolin-crosslinked cyclic peptide of IgG-BP-LongGS]",
    "numericResult": 6.95
  },
  {
    "binder": "GSGGSGPDCAYHRGELVWCTFH (disulfide 9-19 (inferred); not fully specified) [IgG-BP-LongGS, original IgG-binding peptide having a disulfide bond (GSGGS-…)]",
    "numericResult": 8.10
  }
]

Data request: Query: pKd; subject: GSGGSGPDCAYHRGELVWCTFH (not fully specified; the thiol groups of the two Cys residues crosslinked with 1,1-dichloroacetone (1,1-Dichloro-2-propanone) in place of the disulfide bond; Fmoc removed) [1,1-dichloroacetone-crosslinked cyclic peptide of IgG-BP-LongGS]
Data returned: 7.34
